Just for reference, patent US10058534B2 is where these values come from.

Test system: ERα (Homo sapiens (Human), UniProt P03372)
Sequence (P03372 whole entry): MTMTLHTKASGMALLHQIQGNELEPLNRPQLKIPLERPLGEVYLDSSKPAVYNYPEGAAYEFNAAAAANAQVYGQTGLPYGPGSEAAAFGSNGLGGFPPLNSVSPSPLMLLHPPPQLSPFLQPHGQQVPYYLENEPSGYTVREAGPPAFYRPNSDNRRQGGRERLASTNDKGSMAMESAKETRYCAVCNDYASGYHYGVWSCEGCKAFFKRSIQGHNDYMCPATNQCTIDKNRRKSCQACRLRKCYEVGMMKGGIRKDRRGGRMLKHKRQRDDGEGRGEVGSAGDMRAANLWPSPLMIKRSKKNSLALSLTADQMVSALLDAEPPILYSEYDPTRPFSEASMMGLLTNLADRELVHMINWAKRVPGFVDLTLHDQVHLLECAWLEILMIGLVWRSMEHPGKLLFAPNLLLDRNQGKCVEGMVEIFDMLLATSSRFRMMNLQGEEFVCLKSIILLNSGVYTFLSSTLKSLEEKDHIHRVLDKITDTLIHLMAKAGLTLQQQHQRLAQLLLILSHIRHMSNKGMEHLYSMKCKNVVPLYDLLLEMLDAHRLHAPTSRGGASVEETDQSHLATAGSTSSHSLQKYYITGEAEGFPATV
Assay comment: ERα degradation (MCF7 cells), in-cell Western
Condition parameters: inflection point of the degradation in response to ligand concentration, MCF7 cells
Observed property: pIC50
Reminder that pIC50 is minus the log10 of a molar concentration.

INPUT: Quote pIC50 reported for Cc1cccc(C(C)C)c1-c1sc2cc(O)ccc2c1Oc1ccc(/C=C/C(=O)O)cc1 please.
OUTPUT: 8.85

INPUT: Check the records and state pIC50 for [C-]#[N+]c1ccccc1-c1sc2cc(O)ccc2c1Oc1ccc(/C=C/C(=O)O)cc1
OUTPUT: 7.48

INPUT: Query pIC50 for Cc1ccc(C)c(-c2sc3cc(O)ccc3c2Oc2ccc(/C=C/C(=O)O)cc2)c1
OUTPUT: 8.22

INPUT: Identify the reported pIC50 for the following entry. Cc1cc(F)ccc1-c1sc2cc(O)ccc2c1Oc1ccc(/C=C/c2nnc(C3CC3)o2)cc1
OUTPUT: 7.33

INPUT: Provide pIC50 value for the following molecule: Cc1cc(F)ccc1-c1sc2cc(O)ccc2c1Oc1ccc(/C=C/c2nnnn2C)cc1
OUTPUT: 7.96
